- assay.target: CaSho1
- protocol.text: SPOT peptide array binding signal intensity (averaged, normalized) (arbitrary units (background-subtracted, floor 0; scale differs between SH3 domains)); higher = stronger binding of the SH3 domain to the peptide
Record form. Attribute: SPOT peptide array binding signal intensity. Fill in for each entry.

// query Can you share its SPOT peptide array binding signal intensity? I mean this binder: FVLRYYILIPHEQWD
// result 666

// query Can you share its SPOT peptide array binding signal intensity? I mean this binder: DKKTKPTPPPKPSHL
// result 24

// query Can you share its SPOT peptide array binding signal intensity? I mean this binder: PHNPSPFFPPPDFND
// result 7.5

// query Can you share its SPOT peptide array binding signal intensity? I mean this binder: LKRITSPPLPPRADS
// result 9.5

// query Can you share its SPOT peptide array binding signal intensity? I mean this binder: NMLKKKPLKKPLKRF
// result 612

// query Can you share its SPOT peptide array binding signal intensity? I mean this binder: KKEKKPPKIPKKVYT
// result 13

// query Can you share its SPOT peptide array binding signal intensity? I mean this binder: DRIRMFIRFPKFLLE
// result 1280
